System: SN12C renal
Assay: NCI-60 one-dose screen, 48 h (100 = growth as untreated, 0 = no growth, -100 = all killed)
Settings: 10 µM unless noted
The panel holds about 83,000 compounds, 20% with a hit somewhere; the sample as a whole holds those more often.
Property: growth; scope: individual compounds
Entry rule: numbers only, all in %.

> print(dat)
                                   compound  unit.text  measured.value
1  Cn1c(=O)c(S(=O)(=O)c2ccccc2)cc2ccc3c(cnn3-c3ccc(Cl)cc3)c21          %            86.6
2      CC(=O)c1cc(C)c(OC(=O)c2ccccc2)c(C)c1          %             102
3  O=[N+]([O-])c1ccc2nc(N/N=C/c3ccc(O)cc3)sc2c1          %            54.7
4      Clc1ccc(C2=Nc3cccc4cccc(c34)N2)cc1Cl          %             110
5      COc1ccc(/C=C(\C#N)c2cc3ccccc3n2C)cc1          %            44.7

Q: Answer with reported growth of Cc1ccc2nc(NC(=O)CSC(=S)N3CCN(C)CC3)sc2c1
Ans: 100

Q: Tell me measured growth for O=C(c1ccccc1)C(Br)C(Br)c1cccc([N+](=O)[O-])c1 (configuration not stated) please.
Ans: 67.1
